Quick reference for Henry solubility constant Hcp among some compounds
- experiment_notes: Henry solubility constant Hcp at 298.15 K (mol/(m3 Pa))
- run_conditions: reference: Welke et al. (1998)

compound	Henry solubility constant Hcp
ClCCl [dichloromethane]	3.7
C=CCCl [3-chloro-1-propene]	0.0037
Cc1ccccc1C [1,2-dimethylbenzene]	0.0022
c1ccccc1 [benzene]	0.0016
Cc1ccccc1 [methylbenzene]	0.0014
CC(Cl)CCl (stereo not drawn) [1,2-dichloropropane]	0.0055
CCCOC(C)=O [propyl ethanoate]	0.037
CCC[N+](=O)[O-] [1-nitropropane]	0.16
C=Cc1ccccc1 [ethenylbenzene]	0.0025
CC(=O)CC(C)C [4-methyl-2-pentanone]	0.047
Clc1ccccc1 [chlorobenzene]	0.0027
CC#N [ethanenitrile]	0.34
ClCC1CO1 (stereo not drawn) [(chloromethyl)-oxirane]	0.29
